Listed below: pest or weed control at 250 g/ha values for each entry.
Tested on: redroot pigweed (Amaranthus retroflexus)
ASSAY_INFO: Test G Post-Emergence Protocol
Type: in vivo
TEST_CONDITIONS: Amaranthus retroflexus, post-emergence, 312 h, 250 g ai/ha, evaluated after 13 days, read-out: damage to plant, Pigweed, Redroot (100=total damage to plant; 0=no damage to plant)
Source text: Seeds of corn (Zea mays), giant foxtail (Setaria faberi), barnyardgrass (Echinochloa crus-galli), ivy-leaved morning glory (Ipomoea hederacea), redroot pigweed (Amaranthus retroflexus) and velvetleaf (Abutilon theophrasti) were sown in standard soil in pots. […]

MOLECULE	pest or weed control at 250 g/ha [%]
Cc1c(Cl)ncnc1NC(=O)[C@@H]1C(=O)N(C)C[C@H]1c1ccc(C(F)(F)F)cc1 (racemic)	0
Cc1cnc(NC(=O)[C@@H]2C(=O)N(C)C[C@H]2c2ccc(C(F)(F)F)cc2)cn1 (racemic)	0
Cc1ccc(NC(=O)[C@H]2C(=O)N(C)C[C@@H]2c2ccc(C(F)(F)F)cc2)c(C)c1 (racemic)	10
Cc1nc(NC(=O)[C@@H]2C(=O)N(C)C[C@H]2c2ccc(C(F)(F)F)cc2)ccc1F (racemic)	60
CN1C[C@H](c2ccc(C(F)F)cc2)[C@@H](C(=O)Nc2ccccc2F)C1=O (racemic)	20
CN1C[C@@H](c2ccc(C(F)(F)F)cc2)[C@H](C(=O)Nc2ccn[nH]2)C1=O (racemic)	0
CN1C[C@@H](c2ccc(C(F)(F)F)cc2)[C@H](C(=O)Nc2ccc(Cl)nc2)C1=O (racemic)	0
CN1C[C@@H](c2ccc(C(F)(F)F)cc2)[C@H](C(=O)Nc2ccnc(Cl)c2)C1=O (racemic)	0
C#Cc1ccccc1NC(=O)[C@H]1C(=O)N(C)C[C@@H]1c1ccc(C(F)(F)F)cc1 (racemic)	0
C=CCc1c(Cl)cccc1NC(=O)[C@H]1C(=O)N(C)C[C@@H]1c1ccc(C(F)(F)F)cc1 (racemic)	20
Cc1cc(NC(=O)[C@@H]2C(=O)N(C)C[C@H]2c2ccc(C(F)(F)F)cc2)on1 (racemic)	0
CN1C[C@@H](c2ccc(C(F)(F)F)cc2)[C@H](C(=O)Nc2cccc3c2CCC3)C1=O (racemic)	20
CN1C[C@@H](c2ccc(C(F)(F)F)cc2)[C@H](C(=O)Nc2ncnn2C)C1=O (racemic)	0
CN1C[C@@H](c2ccc(C(F)(F)F)cc2)[C@H](C(=O)Nc2ncc[nH]2)C1=O (racemic)	0
CN1C[C@@H](c2ccc(C(F)(F)F)cc2)[C@H](C(=O)Nc2ccccc2Cl)C1=O (racemic)	70
CN1C[C@H](c2cccc(C(C)(C)C#N)c2)[C@@H](C(=O)Nc2cccc(F)c2F)C1=O (racemic)	0

Entry source: patent US12077503B2
